Hello, the source for this data is patent US20240391926A1, in case you need it.

# experimental.target: Kv1.3 potassium channel (Homo sapiens, UniProt P22001)
# Sequence (P22001 whole entry): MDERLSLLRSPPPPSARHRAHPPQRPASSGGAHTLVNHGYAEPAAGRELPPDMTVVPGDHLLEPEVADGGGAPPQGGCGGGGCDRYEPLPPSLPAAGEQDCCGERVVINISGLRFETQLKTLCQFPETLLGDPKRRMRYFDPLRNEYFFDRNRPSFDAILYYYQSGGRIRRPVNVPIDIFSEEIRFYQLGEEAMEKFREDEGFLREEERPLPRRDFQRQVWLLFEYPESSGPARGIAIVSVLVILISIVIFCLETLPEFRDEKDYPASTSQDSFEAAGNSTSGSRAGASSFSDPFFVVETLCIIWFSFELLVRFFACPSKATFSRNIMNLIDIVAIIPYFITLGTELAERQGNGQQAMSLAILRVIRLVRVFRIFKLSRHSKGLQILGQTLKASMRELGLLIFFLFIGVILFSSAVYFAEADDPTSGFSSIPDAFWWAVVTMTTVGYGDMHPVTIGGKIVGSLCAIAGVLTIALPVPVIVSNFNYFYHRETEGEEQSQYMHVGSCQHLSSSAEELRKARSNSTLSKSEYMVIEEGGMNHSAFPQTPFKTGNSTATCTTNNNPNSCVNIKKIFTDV
# experiment.summary: Kv1.3 potassium channel blocker activity, automated whole-cell patch clamp (Patchliner) in CHO-K1 cells stably expressing Kv1.3
# measurement.context: 30 nM-100 μM
pIC50: −log10 of the molar value.
pIC50 values by entry
experimental.readout: pIC50

> print(dat)
                                   molecule  experimental.readout  result
1  O=C(c1ccc(CO)nc1)N1CC[C@]2(C1)C(=O)Nc1cc(Cl)c(Cl)cc12                 pIC50  > 5.52
2  C[C@H]1N(C(=O)CO)CCC12C(=O)Nc1cc(Cl)c(Cl)cc12 (single isomer, unassigned; diastereoisomer 2)                 pIC50  > 5.00
3  O=C(c1cn[nH]c1CO)N1CC[C@]2(C1)C(=O)Nc1cc(Cl)c(Cl)cc12                 pIC50  > 6.00
4  CC(C)(O)CC(=O)N1CC[C@]2(C1)C(=O)Nc1cc(Cl)c(Cl)cc12                 pIC50  > 5.00
5  O=C(CC1CNC1)N1CC[C@]2(C1)C(=O)Nc1cc(Cl)c(Cl)cc12                 pIC50  > 6.00
6  O=C1Nc2cc(Cl)c(Cl)cc2[C@]12CCN(c1cn[nH]n1)C2                 pIC50  > 5.52
7  O=C1Nc2cc(Cl)c(Cl)cc2[C@]12CCN(S(=O)(=O)CCO)C2                 pIC50  > 6.00
8  O=C([C@@H]1C[C@@H]1CO)N1CC[C@]2(C1)C(=O)Nc1cc(Cl)c(Cl)cc12 (relative stereo)                 pIC50  > 6.00

----------
# experimental.target: Kv1.3 potassium channel (Homo sapiens, UniProt P22001)
# Construct: expressed in transfected cells
# experiment.summary: Kv1.3 potassium channel blocker activity, automated whole-cell patch clamp (Patchliner) in CHO-K1 cells stably expressing Kv1.3
# Type: cell-based
# measurement.context: 30 nM-100 μM
pIC50: −log10 of the molar value.
experimental.readout: pIC50

> print(dat)
                                   molecule  result
1  O=C(C[C@H](O)CO)N1CC[C@]2(C1)C(=O)Nc1cc(Cl)c(Cl)cc12  > 5.52
2  CC(C)C[C@H](N)C(=O)N1CC[C@]2(C1)C(=O)Nc1cc(Cl)c(Cl)cc12  > 5.52
3  O=C([C@@H]1CC[C@H](O)[C@@H](O)C1)N1CC[C@]2(C1)C(=O)Nc1cc(Cl)c(Cl)cc12 (single isomer, unassigned; isomer 1)  > 6.00
4  Cc1cc2c(cc1Cl)[C@@]1(CCN(C(=O)CO)C1)C(=O)N2  > 5.00

----------
# experimental.target: Kv1.3 potassium channel (Homo sapiens)
# experiment.summary: Kv1.3 potassium channel blocker activity, automated whole-cell patch clamp (Patchliner) in CHO-K1 cells stably expressing Kv1.3
# measurement.context: 30 nM-100 μM
experimental.readout: IC50

> print(dat)
                                   compound    result
1  O=C([C@H]1CNC[C@H]1O)N1CC[C@]2(C1)C(=O)Nc1cc(Cl)c(Cl)cc12 (single isomer, unassigned) [Compound 2]  < 0.3 µM
2  COC[C@H]1C[C@@H](C(=O)N2CC[C@]3(C2)C(=O)Nc2cc(Cl)c(Cl)cc23)CN1 [Compound 111]    < 1 µM
3  COCC(=O)N1CC[C@]2(C1)C(=O)Nc1cc(Cl)c(Cl)cc12 [Compound 147]    < 1 µM
4  O=C([C@@H]1CCCN1)N1CC[C@]2(C1)C(=O)Nc1cc(Cl)c(Cl)cc12 [Compound 22]    < 1 µM
5  C[C@@H]1CN(C(=O)CO)CC12C(=O)Nc1cc(Cl)c(Cl)cc12 (single isomer, unassigned; diastereoisomer 1) [Compound 130]   < 30 µM
6  O=C(CO)N1CC[C@]2(C1)C(=O)Nc1cc(Cl)c(Cl)cc12 [Compound 6]    < 1 µM
7  O=C(CO)N1CC[C@]2(C1)C(=O)Nc1c2cc(Cl)c(Cl)c1F [Compound 128]  < 0.3 µM
8  O=C1Nc2cc(Cl)c(Cl)cc2[C@]12CCN(C(=O)[C@H]1CC[C@@H](O)CC1)C2 [Compound 51]    < 3 µM

----------
IC50 values by entry
# experimental.target: Kv1.3 potassium channel (Homo sapiens)
# experiment.summary: Kv1.3 potassium channel blocker activity, automated whole-cell patch clamp (Patchliner) in CHO-K1 cells stably expressing Kv1.3
# measurement.context: 30 nM-100 μM
# Method: This assay is used to evaluate the disclosed compounds' activities as Kv1.3 potassium channel blockers. CHO-K1 cells stably expressing Kv1.3 were grown in DMEM containing 10% heat-inactivated FBS, 1 mM sodium pyruvate, 2 mM L-glutamine, and G418 (500 μg/ml). Cells were grown in culture flasks at 37° C. in a 5% CO2-humidified incubator. […]
experimental.readout: IC50

> print(dat)
                                    compound  experimental.readout      result
 1  O=C([C@@H]1CCN(CCO)C1)N1CC[C@]2(C1)C(=O)Nc1cc(Cl)c(Cl)cc12 (single isomer, unassigned; isomer 2)                  IC50    < 300 nM
 2  NC(=O)N1CC[C@@]2(C1)C(=O)Nc1cc(Cl)c(Cl)cc12 (single isomer, unassigned)                  IC50   < 3000 nM
 3  C[C@@H]1C[C@]2(CN1C(=O)CO)C(=O)Nc1cc(Cl)c(Cl)cc12 (single isomer, unassigned; isomer 3)                  IC50   < 1000 nM
 4  O=C1CC(C(=O)N2CC[C@]3(C2)C(=O)Nc2cc(Cl)c(Cl)cc23)CN1 (single isomer, unassigned; isomer 2)                  IC50   < 3000 nM
 5  O=C([C@@H]1CC[C@@](O)(CO)C1)N1CC[C@]2(C1)C(=O)Nc1cc(Cl)c(Cl)cc12 (single isomer, unassigned; isomer 2)                  IC50   < 3000 nM
 6  Nc1ccc(C(=O)N2CC[C@]3(C2)C(=O)Nc2cc(Cl)c(Cl)cc23)cn1                  IC50   < 1000 nM
 7  O=C(N1CC[C@]2(C1)C(=O)Nc1cc(Cl)c(Cl)cc12)C1(F)CCNC1 (single isomer, unassigned; isomer 1)                  IC50    < 300 nM
 8  O=C(N1CC[C@]2(C1)C(=O)Nc1cc(Cl)c(Cl)cc12)C1(F)CCNCC1                  IC50   < 1000 nM
 9  O=C(C1CCNCC1)N1CC[C@]2(C1)C(=O)Nc1cc(Cl)c(Cl)cc12                  IC50   < 1000 nM
10  COC[C@@H]1C[C@@H](C(=O)N2CC[C@]3(C2)C(=O)Nc2cc(Cl)c(Cl)cc23)CN1                  IC50   < 1000 nM
11  O=C(C(CO)CO)N1CC[C@]2(C1)C(=O)Nc1cc(Cl)c(Cl)cc12                  IC50   < 3000 nM
12  CC(=O)N1CC[C@]2(C1)C(=O)Nc1cc(Cl)c(Cl)cc12                  IC50   < 1000 nM
13  O=C(N1CC[C@]2(C1)C(=O)Nc1cc(Cl)c(Cl)cc12)C1(O)CC1                  IC50  < 10000 nM
14  O=C(CC1(O)CCC1)N1CC[C@]2(C1)C(=O)Nc1cc(Cl)c(Cl)cc12                  IC50  < 10000 nM
15  Cc1c(Cl)c(Cl)cc2c1NC(=O)[C@@]21CCN(C(=O)CO)C1                  IC50    < 300 nM

----------
# experimental.target: Kv1.3 potassium channel (Homo sapiens, UniProt P22001)
# experiment.summary: Kv1.3 potassium channel blocker activity, automated whole-cell patch clamp (Patchliner) in CHO-K1 cells stably expressing Kv1.3
# measurement.context: 30 nM-100 μM
pIC50: −log10 of the molar value.
experimental.readout: pIC50

> print(dat)
                                    compound                       experimental.target  result
 1  CC(C)(O)C(=O)N1CC[C@]2(C1)C(=O)Nc1cc(Cl)c(Cl)cc12  Kv1.3 potassium channel (Homo sapiens, UniProt P22001)  > 5.52
 2  CS(=O)(=O)N1CC[C@]2(C1)C(=O)Nc1cc(Cl)c(Cl)cc12  Kv1.3 potassium channel (Homo sapiens, UniProt P22001)  > 6.00
 3  O=C(CCCO)N1CC[C@]2(C1)C(=O)Nc1cc(Cl)c(Cl)cc12  Kv1.3 potassium channel (Homo sapiens, UniProt P22001)  > 5.52
 4  O=C1Nc2cc(Cl)c(Cl)cc2[C@]12CCN(c1cnccn1)C2  Kv1.3 potassium channel (Homo sapiens, UniProt P22001)  > 5.52
 5  Cn1ccc(C(=O)N2CC[C@]3(C2)C(=O)Nc2cc(Cl)c(Cl)cc23)cc1=O  Kv1.3 potassium channel (Homo sapiens, UniProt P22001)  > 5.52
 6  O=C(C[C@@H]1CCCN1)N1CC[C@]2(C1)C(=O)Nc1cc(Cl)c(Cl)cc12  Kv1.3 potassium channel (Homo sapiens, UniProt P22001)  > 6.00
 7  CC[C@@H](O)C(=O)N1CC[C@]2(C1)C(=O)Nc1cc(Cl)c(Cl)cc12  Kv1.3 potassium channel (Homo sapiens, UniProt P22001)  > 5.00
 8  O=C(Cc1cn[nH]c1)N1CC[C@]2(C1)C(=O)Nc1cc(Cl)c(Cl)cc12  Kv1.3 potassium channel (Homo sapiens, UniProt P22001)  > 5.52
 9  NC(=O)N1CC[C@]2(C1)C(=O)Nc1cc(Cl)c(Cl)cc12 (single isomer, unassigned)  Kv1.3 potassium channel (Homo sapiens, UniProt P22001)  > 6.00
10  O=C([C@@H]1CNCCO1)N1CC[C@]2(C1)C(=O)Nc1cc(Cl)c(Cl)cc12  Kv1.3 potassium channel (Homo sapiens, UniProt P22001)  > 5.52
11  O=C([C@@H]1CCOC1)N1CC[C@]2(C1)C(=O)Nc1cc(Cl)c(Cl)cc12  Kv1.3 potassium channel (Homo sapiens, UniProt P22001)  > 5.52
12  Nc1cc(C(=O)N2CC[C@]3(C2)C(=O)Nc2cc(Cl)c(Cl)cc23)ccn1  Kv1.3 potassium channel (Homo sapiens, UniProt P22001)  > 6.52
13  O=C([C@@H]1CCNC1)N1CC[C@]2(C1)C(=O)Nc1cc(Cl)c(Cl)cc12  Kv1.3 potassium channel (Homo sapiens, UniProt P22001)  > 6.52
14  COC[C@H]1C[C@H](C(=O)N2CC[C@]3(C2)C(=O)Nc2cc(Cl)c(Cl)cc23)CN1  Kv1.3 potassium channel (Homo sapiens, UniProt P22001)  > 6.52
15  O=C([C@@H]1CN[C@@H](CO)C1)N1CC[C@]2(C1)C(=O)Nc1cc(Cl)c(Cl)cc12  Kv1.3 potassium channel (Homo sapiens, UniProt P22001)  > 7.00
16  O=C(C[C@H]1CCCN1)N1CC[C@]2(C1)C(=O)Nc1cc(Cl)c(Cl)cc12  Kv1.3 potassium channel (Homo sapiens, UniProt P22001)  > 5.52
17  O=C(C1CNCC(F)(F)C1)N1CC[C@]2(C1)C(=O)Nc1cc(Cl)c(Cl)cc12 (some centres unmarked)  Kv1.3 potassium channel (Homo sapiens, UniProt P22001)  > 6.00
